tested_target: Ubiquitin carboxyl-terminal hydrolase 10 (Homo sapiens)
experimental_details: blocks human USP10 ubiquitin-rhodamine cleavage (AID 1645856)
protocol_conditions: purified USP10, Ub-rhodamine fluorescence, 60 min; at 20 µM; stronger effect = higher value
Out of some 47,000 compounds screened, about 510 (1.1%) were called active. Only a selection was taken, and actives are over-represented in it overall.
Could you please report measured inhibition for the items listed next?
Please reply with the bare figure in % and do not write the unit itself.

Value of inhibition reported for the molecule O=C(NCc1cccnc1N1CCCCC1)c1nc2n(n1)-c1ccccc1S(=O)(=O)N2 is 17.3

Value of inhibition reported for the molecule Cc1nn(CCC(=O)Nc2ccc(C#N)cc2)c(C)c1S(=O)(=O)N1CCOCC1 is 7.2

Value of inhibition reported for the molecule O=C(NC1CCCC1)c1ccc(N2CCOc3ccccc32)s1 is 0.616

Value of inhibition reported for the molecule Cc1c(C2CCN(C(=O)NCc3ccccc3)CC2)noc1N is -2.52

Value of inhibition reported for the molecule c1ccc(-c2ccc(NCc3ccc4c(c3)OCO4)nn2)cc1 is 3.9

Value of inhibition reported for the molecule CC1=C(C(=O)OCCOc2ccccc2)C(c2ccccc2OC(C)C)NC(=O)N1 (stereo not given) is 5.16

Value of inhibition reported for the molecule Cc1ccc(C(=O)Nc2nc3c(s2)CCC3C(=O)NCc2ccncc2)cc1 (stereo not given) is -7.71

Value of inhibition reported for the molecule CN(C)c1nccnc1C1CN(C(=O)c2cc(C(C)(C)C)[nH]n2)CCO1 (stereo not given) is 4.78

Value of inhibition reported for the molecule O=S1(=O)C=C(CSCCO)c2cc(Cl)ccc21 is -1.29

Value of inhibition reported for the molecule CC(C)C(NS(=O)(=O)c1ccc(Cl)cc1)C(=O)OCC(=O)C12CC3CC(CC(C3)C1)C2 (stereo not given) is 3.82

The measured values listed here are drawn from PubChem BioAssay AID1645856.
